# Test system: Syncephalastrum racemosum
# assayName: Inhibition of DHPS in Syncephalastrum racemosum assessed as antifungal activity by measuring inhibition of fungal growth incubated for 48 hrs by microbroth dilution method
log10 MIC values for the molecules below.
quantityMeasured: log10 MIC (log10 of the value in µg/mL)

{"givenSmiles": "CCN/C(S[C@@H]1O[C@H](COC(C)=O)[C@H](OC(C)=O)[C@H](OC(C)=O)[C@H]1OC(C)=O)=C(/C#N)C(=O)Nc1ccc(S(=O)(=O)Nc2onc(C)c2C)cc1", "log10 MIC": 1.49}
{"givenSmiles": "C=CCN/C(S[C@@H]1O[C@H](COC(C)=O)[C@@H](OC(C)=O)[C@H](OC(C)=O)[C@H]1OC(C)=O)=C(/C#N)C(=O)Nc1ccc(S(=O)(=O)Nc2onc(C)c2C)cc1", "log10 MIC": 0.29}
{"givenSmiles": "C=CCN/C(SCC)=C(/C#N)C(=O)Nc1ccc(S(=O)(=O)Nc2onc(C)c2C)cc1", "log10 MIC": -0.01}
{"givenSmiles": "CCN/C(SCC)=C(/C#N)C(=O)Nc1ccc(S(=O)(=O)Nc2onc(C)c2C)cc1", "log10 MIC": 0.59}
{"givenSmiles": "Cc1noc(NS(=O)(=O)c2ccc(NC(=O)/C(C#N)=C(/S)Nc3ccccc3)cc2)c1C", "log10 MIC": 2.10}
{"givenSmiles": "Cc1noc(NS(=O)(=O)c2ccc(N)cc2)c1C", "log10 MIC": 2.10}
{"givenSmiles": "C=CCN/C(S[C@@H]1O[C@H](COC(C)=O)[C@H](OC(C)=O)[C@H](OC(C)=O)[C@H]1OC(C)=O)=C(/C#N)C(=O)Nc1ccc(S(=O)(=O)Nc2onc(C)c2C)cc1", "log10 MIC": 1.19}

----------
Catalogue of log10 of MIC values
# Test system: Streptococcus pneumoniae
# assayName: Inhibition of DHPS in Streptococcus pneumoniae assessed as antibacterial activity by measuring inhibition of bacterial growth incubated for 24 hrs by microbroth dilution method
quantityMeasured: log10 of MIC (log10 of the value in µg/mL)

{"givenSmiles": "CCN/C(S[C@@H]1O[C@H](COC(C)=O)[C@H](OC(C)=O)[C@H](OC(C)=O)[C@H]1OC(C)=O)=C(/C#N)C(=O)Nc1ccc(S(=O)(=O)Nc2onc(C)c2C)cc1", "log10 of MIC": 0.89}
{"givenSmiles": "CN/C(S[C@@H]1O[C@H](COC(C)=O)[C@@H](OC(C)=O)[C@H](OC(C)=O)[C@H]1OC(C)=O)=C(/C#N)C(=O)Nc1ccc(S(=O)(=O)Nc2onc(C)c2C)cc1", "log10 of MIC": -0.01}
{"givenSmiles": "Cc1noc(NS(=O)(=O)c2ccc(N)cc2)c1C", "log10 of MIC": 0.29}
{"givenSmiles": "CC1(C)S[C@@H]2[C@H](NC(=O)[C@H](N)c3ccccc3)C(=O)N2[C@H]1C(=O)O", "log10 of MIC": -0.92}
{"givenSmiles": "C=CCN/C(S[C@@H]1O[C@H](COC(C)=O)[C@H](OC(C)=O)[C@H](OC(C)=O)[C@H]1OC(C)=O)=C(/C#N)C(=O)Nc1ccc(S(=O)(=O)Nc2onc(C)c2C)cc1", "log10 of MIC": 0.59}
{"givenSmiles": "CN/C(S[C@@H]1O[C@H](COC(C)=O)[C@H](OC(C)=O)[C@H](OC(C)=O)[C@H]1OC(C)=O)=C(/C#N)C(=O)Nc1ccc(S(=O)(=O)Nc2onc(C)c2C)cc1", "log10 of MIC": 1.19}
{"givenSmiles": "CCS/C(NC)=C(\\C#N)C(=O)Nc1ccc(S(=O)(=O)Nc2onc(C)c2C)cc1", "log10 of MIC": 0.59}

These entries and their values trace back to ChEMBL document CHEMBL4627352.
